- TGT: TDO2 (Homo sapiens)
- Construct: decreased levels of NFK in SW48 cells (high TDO expressing cells)
- PROCEDURE_TEXT: TDO2 cell assay (NFK GreenScreen, SW48 cells)
- Format: cell-based
- CONDITION_INFO: SW48 cells (high TDO expressing), 200 uM tryptophan, 24 hours; Table 3; read-out: TDO2 Cell Fluor EC50
Categorize each record by its EC50 using low group (below 200 nM), middle group (200 nM to below 10000 nM), high group (10000 nM or more)

- MOLECULE: "CC(C)(C)OC(=O)N1CCCC(O)(C2c3ccccc3-c3cncn32)C1 (single isomer, unassigned) [Example 127c]"
  TGT: "TDO2 (Homo sapiens)"
  CLASS_ASSIGNMENT: "middle group"

Query: Could you place OC1CCOCC1C1c2c(F)cccc2-c2cncn21 (single isomer, unassigned) [Example 73a] in its proper category? Many thanks.
Response: middle group

Query: Hey, which category is O[C@H]1CC[C@@H]1[C@@H]1c2ccccc2-c2cncn21 [Example 01c] in, do you know?
Response: high group

Query: Category of OC1c2[nH]ncc2CCC1C1c2ccccc2-c2cncn21 (single isomer, unassigned) [Example 157c] :
Response: high group

Query: Entry CCS(=O)(=O)N1CCC2(CC1)CC(C1c3ccccc3-c3cncn31)C2O (single isomer, unassigned) [Example 114d] belongs to which category?
Response: middle group

Query: Given CC1(C)CCCC(C2c3ccccc3-c3cncn32)C1O (single isomer, unassigned) [Example 24h] , name the class its EC50 places it in.
Response: high group

Query: Bin? OC1CCCCC1C1c2ccccc2-c2cncn21 (single isomer, unassigned) [Example 03d]
Response: low group

Query: Into which category would you place O[C@@H]1CC(CF)(CF)[C@@H]1[C@H]1c2ccccc2-c2cncn21 [Example 150a] ?
Response: high group

====

- TGT: TDO2 (Homo sapiens)
- Construct: decreased levels of NFK in SW48 cells (high TDO expressing cells)
- PROCEDURE_TEXT: TDO2 cell assay (NFK GreenScreen, SW48 cells)
- Format: cell-based
- CONDITION_INFO: SW48 cells (high TDO expressing), 200 uM tryptophan, 24 hours; Table 3; read-out: TDO2 Cell Fluor EC50
OBSERVED_PROPERTY: pEC50
To interpret pEC50, take it as minus log10 of a concentration measured in moles per litre.

- MOLECULE: "O[C@H]1c2ncccc2CC[C@H]1[C@H]1c2ccccc2-c2cncn21 [Example 63c]"
  pEC50: 4.70

For record CS(=O)(=O)N1CC[C@@H]([C@H]2c3ccccc3-c3cncn32)[C@H](O)C1 (single isomer, unassigned) [Example 64d] the listed pEC50 is 5.60

pEC50 measured on CC1(C)OCC(C2c3ccccc3-c3cncn32)C1O (single isomer, unassigned) [Example 85g] = 6.85

Entry OC1CC(C2c3ccccc3-c3cncn32)C1O (stereo not drawn) [Example 158a] — recorded pEC50 = 5.10

For record O[C@H]1CCCC[C@@H]1[C@@H]1c2ccccc2-c2cncn21 [Example 03g] the listed pEC50 is 5.12

pEC50 in this record for Nc1cc2n(n1)CCC(C1c3ccccc3-c3cncn31)C2O (single isomer, unassigned) [Example 161h] : 4.74

Looking up CC1(C)CCCC(C)(C2c3ccccc3-c3cncn32)C1O (single isomer, unassigned) [Example 90c] , I see its pEC50 listed as 7.24

The recorded pEC50 for entry N#Cc1cnc2c(c1)CCC(C1c3ccccc3-c3cncn31)C2O (single isomer, unassigned) [Example 107c] equals 4.68

Quick note, pEC50 for N#Cc1cnc2c(c1)CCC(C1c3ccccc3-c3cncn31)C2O (single isomer, unassigned) [Example 107g] landed at 6.06

Record summary for CS(=O)(=O)N1CCC[C@](O)([C@@H]2c3ccccc3-c3cncn32)C1 [Example 134a] : reported pEC50 = 5.96

Note to self: pEC50 recorded for OC1c2cncnc2CCC1C1c2ccccc2-c2cncn21 (single isomer, unassigned) [Example 94a] was 5.64

The molecule listed as OC1CCCOCC1C1c2ccccc2-c2cncn21 (single isomer, unassigned) [Example 86a] has a reported pEC50 of 4.85

====

Entries and their measured log10 EC50 follow.
- TGT: TDO2 (Homo sapiens)
- Construct: decreased levels of NFK in SW48 cells (high TDO expressing cells)
- PROCEDURE_TEXT: TDO2 cell assay (NFK GreenScreen, SW48 cells)
- Assay type: cell-based
- CONDITION_INFO: SW48 cells (high TDO expressing), 200 uM tryptophan, 24 hours; Table 3; read-out: TDO2 Cell Fluor EC50
Note: values are log10 of EC50 expressed in µM.

// solved cases for log10 EC50 follow
- COMPOUND: "CS(=O)(=O)c1ccc2c(c1)CCC(C1c3ccccc3-c3cncn31)C2O (single isomer, unassigned) [Example 36d]"
  log10 EC50: 0.58
- COMPOUND: "NC(=O)c1ccc2c(n1)CCC(C1c3ccccc3-c3cncn31)C2O (single isomer, unassigned) [Example 104a]"
  log10 EC50: 0.34
- COMPOUND: "OC1c2cnncc2CCC1C1c2ccccc2-c2cncn21 (single isomer, unassigned) [Example 112d]"
  log10 EC50: 0.75
- COMPOUND: "Cc1cnn2c1C(O)C(C1c3ccccc3-c3cncn31)CC2 (single isomer, unassigned) [Example 159b]"
  log10 EC50: 1.15
- COMPOUND: "O=S(=O)(C1CC1)N1CC[C@@H](O)[C@H]([C@H]2c3ccccc3-c3cncn32)C1 (single isomer, unassigned) [Example 70b]"
  log10 EC50: 0.04
- COMPOUND: "CC(C)(C)OC(=O)N1CC2(CC(C3c4ccccc4-c4cncn43)C2O)C1 (single isomer, unassigned) [Example 41h]"
  log10 EC50: -0.12
- COMPOUND: "O[C@@H](C1CCCCC1)[C@H]1c2ccccc2-c2cncn21 [Example 148b]"
  log10 EC50: 1.20
- COMPOUND: "N#Cc1cnn2c1[C@@H](O)[C@@H]([C@H]1c3ccccc3-c3cncn31)CC2 (single isomer, unassigned) [Example 156c]"
  log10 EC50: 1.28
- COMPOUND: "O[C@H]1CCC(F)(F)C[C@H]1[C@H]1c2ccccc2-c2cncn21 [Example 18a]"
  log10 EC50: -1.19
- COMPOUND: "Cn1cc2c(n1)[C@@H](O)[C@@H]([C@@H]1c3ccccc3-c3cncn31)CC2 (single isomer, unassigned) [Example 139-1d]"
  log10 EC50: -0.15

The recorded log10 EC50 for entry OC1CCOCC1C1c2cccc(F)c2-c2cncn21 (single isomer, unassigned) [Example 170b] equals 0.32

Documented log10 EC50 of Cn1cc2c(n1)CCC(C1c3ccccc3-c3cncn31)C2O (single isomer, unassigned) [Example 130f] : 0.08

The compound listed as OC1COCCC1C1c2cc(F)ccc2-c2cncn21 (single isomer, unassigned) [Example 75-1a] shows log10 EC50 equal to 0.76

Input OC1c2cnccc2CC1C1c2ccccc2-c2cncn21 (single isomer, unassigned) [Example 71d] . Output log10 EC50: 0.20

Entry NS(=O)(=O)c1ccc2c(c1)C(O)C(C1c3ccccc3-c3cncn31)CC2 (single isomer, unassigned) [Example 105f] ; log10 EC50 = 1.20

====

- TGT: TDO2 (Homo sapiens, UniProt P48775)
- Construct: decreased levels of NFK in SW48 cells (high TDO expressing cells)
- Sequence (P48775 whole entry): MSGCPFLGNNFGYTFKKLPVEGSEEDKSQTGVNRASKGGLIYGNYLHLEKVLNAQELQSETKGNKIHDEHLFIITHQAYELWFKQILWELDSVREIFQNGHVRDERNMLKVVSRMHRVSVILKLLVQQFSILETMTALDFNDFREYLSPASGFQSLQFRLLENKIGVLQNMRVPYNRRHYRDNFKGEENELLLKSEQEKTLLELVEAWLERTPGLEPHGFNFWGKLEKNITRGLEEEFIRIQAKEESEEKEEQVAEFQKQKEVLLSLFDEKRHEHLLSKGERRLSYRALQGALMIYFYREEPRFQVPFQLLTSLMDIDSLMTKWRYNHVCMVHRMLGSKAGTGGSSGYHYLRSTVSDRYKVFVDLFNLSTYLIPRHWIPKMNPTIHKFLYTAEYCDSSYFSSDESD
- PROCEDURE_TEXT: TDO2 cell assay (NFK GreenScreen, SW48 cells)
- Type: cell-based
- CONDITION_INFO: SW48 cells (high TDO expressing), 200 uM tryptophan, 24 hours; Table 3; read-out: TDO2 Cell Fluor EC50
OBSERVED_PROPERTY: EC50

Consider the reported EC50 for these molecules:
- MOLECULE: "N#Cc1cnn2c1C(O)C(C1c3ccccc3-c3cncn31)CC2 (single isomer, unassigned) [Example 156a]"
  EC50: "> 25 µM"
- MOLECULE: "CS(=O)(=O)N1CCC(C2c3ccccc3-c3cncn32)C(O)C1 (centres unmarked) [Example 64c]"
  EC50: "> 25 µM"

In plain terms, Nc1cc2n(n1)CCC(C1c3ccccc3-c3cncn31)C2O (single isomer, unassigned) [Example 161g] has a documented EC50 of > 25 µM

So, OC1C(C2c3ccccc3-c3cncn32)CC12CCOCC2 (single isomer, unassigned) [Example 57f] ? Its EC50 was 0.73 µM

Item: OC1c2nccn2CCC1C1c2ccccc2-c2cncn21 (single isomer, unassigned) [Example 88f] | EC50: 5.8 µM

Form: molecule = OC1CCCCC1C1c2ccccc2-c2cncn21 (single isomer, unassigned) [Example 03c] ; EC50 = > 25 µM

Looking up O[C@@H]1CCOC[C@H]1[C@@H]1c2ccccc2-c2cncn21 [Example 05c] , I found its EC50 recorded as > 25 µM

EC50 in this record for CC1(C)COCC(C2c3ccccc3-c3cncn32)C1O (single isomer, unassigned) [Example 66c] : 4.8 µM
